- MEASUREMENT_SETUP: in NMP, 293.15 K
TEST_READOUT: solubility (mole fraction)
Form rule: numeric answer, no unit written next to it.

// query solubility (mole fraction) for `CS(=O)(=O)OCCCCOS(C)(=O)=O` ?
// result 0.0328

====

- MEASUREMENT_SETUP: in n-butanol, 323.15 K
TEST_READOUT: solubility (mole fraction)
Form rule: numeric answer, no unit written next to it.

// query solubility (mole fraction) for `CS(=O)(=O)OCCCCOS(C)(=O)=O` ?
// result 0.000276

====

- MEASUREMENT_SETUP: in methanol, 313.15 K
TEST_READOUT: solubility (mole fraction)
Form rule: numeric answer, no unit written next to it.

// query solubility (mole fraction) for `CS(=O)(=O)OCCCCOS(C)(=O)=O` ?
// result 0.000813

====

- MEASUREMENT_SETUP: in DMF, 313.15 K
TEST_READOUT: solubility (mole fraction)

// query solubility (mole fraction) for `CS(=O)(=O)OCCCCOS(C)(=O)=O` ?
// result 0.0611

====

- MEASUREMENT_SETUP: in NMP, 288.15 K
TEST_READOUT: solubility (mole fraction)
Form rule: numeric answer, no unit written next to it.

// query solubility (mole fraction) for `CS(=O)(=O)OCCCCOS(C)(=O)=O` ?
// result 0.0266

====

- MEASUREMENT_SETUP: in n-propyl acetate, 298.15 K
TEST_READOUT: solubility (mole fraction)

// query solubility (mole fraction) for `CS(=O)(=O)OCCCCOS(C)(=O)=O` ?
// result 0.00101

====

- MEASUREMENT_SETUP: in n-propyl acetate, 303.15 K
TEST_READOUT: solubility (mole fraction)
Form rule: numeric answer, no unit written next to it.

// query solubility (mole fraction) for `CS(=O)(=O)OCCCCOS(C)(=O)=O` ?
// result 0.00137

====

- MEASUREMENT_SETUP: in 2-butoxyethanol, 303.15 K
TEST_READOUT: solubility (mole fraction)
Form rule: numeric answer, no unit written next to it.

// query solubility (mole fraction) for `CS(=O)(=O)OCCCCOS(C)(=O)=O` ?
// result 0.000522

====

- MEASUREMENT_SETUP: in n-butyl acetate, 293.15 K
TEST_READOUT: solubility (mole fraction)
Form rule: numeric answer, no unit written next to it.

// query solubility (mole fraction) for `CS(=O)(=O)OCCCCOS(C)(=O)=O` ?
// result 0.000549

====

- MEASUREMENT_SETUP: in n-butyl acetate, 308.15 K
TEST_READOUT: solubility (mole fraction)
Form rule: numeric answer, no unit written next to it.

// query solubility (mole fraction) for `CS(=O)(=O)OCCCCOS(C)(=O)=O` ?
// result 0.00122

====

- MEASUREMENT_SETUP: in methanol, 283.15 K
TEST_READOUT: solubility (mole fraction)
Form rule: numeric answer, no unit written next to it.

// query solubility (mole fraction) for `CS(=O)(=O)OCCCCOS(C)(=O)=O` ?
// result 6.97e-05

====

- MEASUREMENT_SETUP: in ethanol, 283.15 K
TEST_READOUT: solubility (mole fraction)
Form rule: numeric answer, no unit written next to it.

// query solubility (mole fraction) for `CS(=O)(=O)OCCCCOS(C)(=O)=O` ?
// result 2.49e-05

====

- MEASUREMENT_SETUP: in n-propyl acetate, 283.15 K
TEST_READOUT: solubility (mole fraction)
Form rule: numeric answer, no unit written next to it.

// query solubility (mole fraction) for `CS(=O)(=O)OCCCCOS(C)(=O)=O` ?
// result 0.000298

====

- MEASUREMENT_SETUP: in methyl acetate, 298.15 K
TEST_READOUT: solubility (mole fraction)
Form rule: numeric answer, no unit written next to it.

// query solubility (mole fraction) for `CS(=O)(=O)OCCCCOS(C)(=O)=O` ?
// result 0.00323

====

- MEASUREMENT_SETUP: in 2-butoxyethanol, 318.15 K
TEST_READOUT: solubility (mole fraction)

// query solubility (mole fraction) for `CS(=O)(=O)OCCCCOS(C)(=O)=O` ?
// result 0.00102

====

- MEASUREMENT_SETUP: in n-propyl acetate, 318.15 K
TEST_READOUT: solubility (mole fraction)
Form rule: numeric answer, no unit written next to it.

// query solubility (mole fraction) for `CS(=O)(=O)OCCCCOS(C)(=O)=O` ?
// result 0.00386

====

- MEASUREMENT_SETUP: in 2-butoxyethanol, 288.15 K
TEST_READOUT: solubility (mole fraction)
Form rule: numeric answer, no unit written next to it.

// query solubility (mole fraction) for `CS(=O)(=O)OCCCCOS(C)(=O)=O` ?
// result 0.000261

====

- MEASUREMENT_SETUP: in ethyl acetate, 278.15 K
TEST_READOUT: solubility (mole fraction)
Form rule: numeric answer, no unit written next to it.

// query solubility (mole fraction) for `CS(=O)(=O)OCCCCOS(C)(=O)=O` ?
// result 0.000385

====

- MEASUREMENT_SETUP: in ethyl acetate, 313.15 K
TEST_READOUT: solubility (mole fraction)
Form rule: numeric answer, no unit written next to it.

// query solubility (mole fraction) for `CS(=O)(=O)OCCCCOS(C)(=O)=O` ?
// result 0.0038

====

- MEASUREMENT_SETUP: in n-propanol, 298.15 K
TEST_READOUT: solubility (mole fraction)
Form rule: numeric answer, no unit written next to it.

// query solubility (mole fraction) for `CS(=O)(=O)OCCCCOS(C)(=O)=O` ?
// result 4.05e-05

====

- MEASUREMENT_SETUP: in 2-propoxyethanol, 308.15 K
TEST_READOUT: solubility (mole fraction)
Form rule: numeric answer, no unit written next to it.

// query solubility (mole fraction) for `CS(=O)(=O)OCCCCOS(C)(=O)=O` ?
// result 0.000905

====

- MEASUREMENT_SETUP: in n-propyl acetate, 308.15 K
TEST_READOUT: solubility (mole fraction)
Form rule: numeric answer, no unit written next to it.

// query solubility (mole fraction) for `CS(=O)(=O)OCCCCOS(C)(=O)=O` ?
// result 0.00195

====

- MEASUREMENT_SETUP: in methyl acetate, 278.15 K
TEST_READOUT: solubility (mole fraction)
Form rule: numeric answer, no unit written next to it.

// query solubility (mole fraction) for `CS(=O)(=O)OCCCCOS(C)(=O)=O` ?
// result 0.000892

====

- MEASUREMENT_SETUP: in 2-ethoxyethanol, 278.15 K
TEST_READOUT: solubility (mole fraction)
Form rule: numeric answer, no unit written next to it.

// query solubility (mole fraction) for `CS(=O)(=O)OCCCCOS(C)(=O)=O` ?
// result 0.000166

====

- MEASUREMENT_SETUP: in methanol, 293.15 K
TEST_READOUT: solubility (mole fraction)
Form rule: numeric answer, no unit written next to it.

// query solubility (mole fraction) for `CS(=O)(=O)OCCCCOS(C)(=O)=O` ?
// result 0.000167

====

- MEASUREMENT_SETUP: in methyl acetate, 293.15 K
TEST_READOUT: solubility (mole fraction)
Form rule: numeric answer, no unit written next to it.

// query solubility (mole fraction) for `CS(=O)(=O)OCCCCOS(C)(=O)=O` ?
// result 0.00248

====

- MEASUREMENT_SETUP: in n-propanol, 283.15 K
TEST_READOUT: solubility (mole fraction)

// query solubility (mole fraction) for `CS(=O)(=O)OCCCCOS(C)(=O)=O` ?
// result 8e-06

====

- MEASUREMENT_SETUP: in ethanol, 278.15 K
TEST_READOUT: solubility (mole fraction)
Form rule: numeric answer, no unit written next to it.

// query solubility (mole fraction) for `CS(=O)(=O)OCCCCOS(C)(=O)=O` ?
// result 1.55e-05

====

- MEASUREMENT_SETUP: in n-butyl acetate, 288.15 K
TEST_READOUT: solubility (mole fraction)
Form rule: numeric answer, no unit written next to it.

// query solubility (mole fraction) for `CS(=O)(=O)OCCCCOS(C)(=O)=O` ?
// result 0.000402

====

- MEASUREMENT_SETUP: in 2-butoxyethanol, 298.15 K
TEST_READOUT: solubility (mole fraction)
Form rule: numeric answer, no unit written next to it.

// query solubility (mole fraction) for `CS(=O)(=O)OCCCCOS(C)(=O)=O` ?
// result 0.000417

====

- MEASUREMENT_SETUP: in n-butyl acetate, 313.15 K
TEST_READOUT: solubility (mole fraction)
Form rule: numeric answer, no unit written next to it.

// query solubility (mole fraction) for `CS(=O)(=O)OCCCCOS(C)(=O)=O` ?
// result 0.00175
